- Target desc: T1, hANG2-His (human, UniProt O15123 19-496, limits assumed)
- T1 construct: also called 人源ANG2; ANGPT2; not shown: C-terminal His tag
- T1 sequence (looked up): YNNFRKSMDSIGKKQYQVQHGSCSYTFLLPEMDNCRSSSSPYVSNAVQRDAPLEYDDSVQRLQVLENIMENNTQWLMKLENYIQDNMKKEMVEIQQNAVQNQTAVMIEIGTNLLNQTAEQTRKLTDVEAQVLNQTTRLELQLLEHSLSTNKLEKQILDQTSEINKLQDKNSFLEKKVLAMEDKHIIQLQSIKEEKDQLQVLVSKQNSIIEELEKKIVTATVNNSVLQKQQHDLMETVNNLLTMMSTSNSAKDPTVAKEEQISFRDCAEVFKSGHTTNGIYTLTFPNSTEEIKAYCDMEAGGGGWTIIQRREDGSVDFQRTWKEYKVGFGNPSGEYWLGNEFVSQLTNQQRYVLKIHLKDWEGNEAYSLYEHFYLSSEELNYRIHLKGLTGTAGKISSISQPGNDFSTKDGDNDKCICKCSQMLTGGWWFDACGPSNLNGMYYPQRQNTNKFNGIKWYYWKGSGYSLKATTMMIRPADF
- Assay remarks: BLI (Gator), antibody captured on sensor, hANG2-His 100/50/25 nM
Measure name: kon (M⁻¹ s⁻¹)
Write down the numeric answer in M⁻¹ s⁻¹ and omit the unit.

Input line: Fill blank: measured kon of the binder 抗体78A74-25 (antibody, IgG1, V domains shown) VH: QVQLVESGGGLVKPGGSLRLSCAASGFTFSSYSMNWVRQAPGKGLEWVAVISYDGSNKYYADSVKGRFTISRDNSKNTLYLQMNSLRAEDTAVYYCAKATLDGYTAGYYYGMDVWGQGTTVTVSS VL: EIVLTQSPATLSLSPGERATLSCRASQSVSSYLAWYQQKPGQAPRLLIYDASNRATGIPARFSGSGSGTDFTLTISSLEPEDFAVYYCQQRSNWPPELYFGQGTKVEIK is ____.
Output line: 194000

Input line: Can you share its kon? I mean this binder: 抗体78A74-36 (antibody, IgG1, V domains shown) VH: QVQLVESGGGLVKPGGSLRLSCAASGFTFSSYSMNWVRQAPGKGLEWVAVISYDGSNKYYADSVKGRFTISRDNSKNTLYLQMNSLRAEDTAVYYCAKATLDGYTAGYYYGMDVWGQGTTVTVSS VL: EIVLTQSPATLSLSPGERATLSCRASQSVSSYLAWYQQKPGQAPRLLIYDASNRATGIPARFSGSGSGTDFTLTISSLEPEDFAVYYCQQRTMWPPEWTFGQGTKVEIK
Output line: 200000

Input line: What does the data say about its kon? Entry: 抗体78A74-21 (antibody, IgG1, V domains shown) VH: QVQLVESGGGLVKPGGSLRLSCAASGFTFSSYSMNWVRQAPGKGLEWVAVISYDGSNKYYADSVKGRFTISRDNSKNTLYLQMNSLRAEDTAVYYCAKETLDGYTAGYYYGMDVWGQGTTVTVSS VL: EIVLTQSPATLSLSPGERATLSCRASQSVGSYLAWYQQKPGQAPRLLIYDASNRATGIPARFSGSGSGTDFTLTISSLEPEDFAVYYCQQRSNGPPEWTFGQGTKVEIK
Output line: 192000

These data points were gathered from patent CN116178540A.
